test system: HEK-293T; assay: Incucyte cell viability with HEK293T; type: toxicity, cell-based; conditions: human, 24 h, 10 µM, compound concentration 10 uM, replicate number 2, timepoint 24 hours; also: unitless GR value; below 1 slowed growth and below 0 cell loss
Binary label based on Growth Rate with cut-off 0.3: below gives condition met, not below gives condition not met.

Bench note: check whether C[C@H]1[C@H](OC(=O)CCC(=O)O)O[C@@H]2O[C@@]3(C)CC[C@H]4[C@H](C)CC[C@@H]1[C@@]24OO3 [ARTESUNATE] shows Growth Rate below 0.3 condition met

hey, is Growth Rate for CN(c1ncccc1CNc1ccnc(-c2cc3cc(Cl)ccc3[nH]2)n1)S(C)(=O)=O lower than 0.3 or not? condition met

Does the reported Growth Rate of the following molecule sit strictly below 0.3? CCCCC[C@H](O)/C=C/[C@H]1CCC(=O)[C@@H]1CCCCCCC(=O)O condition not met

###

test system: U2OS; experiment: Incucyte cell viability with U2OS; assay type: toxicity, cell-based; conditions: human, 12 h, 10 µM, compound concentration 10 uM, replicate number 1, timepoint 12 hours; also: unitless GR value; below 1 slowed growth and below 0 cell loss
# Growth Rate values compiled below
The answer should be written as a number, with no unit following it.

Look over these answered cases.
{"SMILES_DATA": "Cc1cnc(CNCC2(F)CCN(C(=O)c3ccc(F)c(Cl)c3)CC2)nc1", "MEASUREMENT": 0.56}
{"SMILES_DATA": "OC[C@H]1O[C@@H](n2cnc3c(NC4CCCC4)ncnc32)[C@H](O)[C@@H]1O", "MEASUREMENT": 0.69}
{"SMILES_DATA": "C[C@@](Cc1c[nH]c2ccccc12)(NC(=O)Nc1ccc([N+](=O)[O-])cc1)C(=O)NCC1(c2ccccn2)CCCCC1", "MEASUREMENT": -0.03}

Proceeding to the next molecule to report its Growth Rate.
// fetch Growth Rate; item: CN(C)C(=O)Cn1cc(-c2ccc(-c3nnc4ccccn34)cc2)cn1 ; system: U2OS 0.46

###

system: Fibroblast; test: Incucyte cell viability with human fibroblast; type: toxicity, cell-based; conditions: 0 h, 10 µM, compound concentration 10 uM, replicate number 2, timepoint 0 hours; also: unitless GR value; below 1 slowed growth and below 0 cell loss
Assign Criterion met whenever Growth Rate does not fall below 0.3; assign Criterion not met whenever it does.

{"COMPOUND": "Brc1c(N=C2NCCN2)ccc2nccnc12.O=C(O)C(O)C(O)C(=O)O", "CLASSIFICATION": "Criterion met"}
{"COMPOUND": "Cc1cc(Cn2nnc3c(-c4ccco4)nc(N)nc32)ccc1N [VIPADENANT]", "CLASSIFICATION": "Criterion met"}
{"COMPOUND": "COc1c(Nc2ccc(S(C)(=O)=O)nc2C)ncnc1OC1CCN(C(=O)OC(C)C)CC1 [ADP-597]", "CLASSIFICATION": "Criterion met"}

Entry Cc1cc(C)cc(C(=O)NOCCCCCC(=O)NO)c1 : is its Growth Rate no less than 0.3? Criterion met

Answer whether Growth Rate of O=C(CCCc1ccccc1)Nc1nc2ccccc2c(=O)s1 is greater than or equal to 0.3. Criterion met

Please tell me: is the compound CCN(Cc1ccncc1)C(=O)C(CO)c1ccccc1 (stereo not drawn) [TROPICAMIDE] at or over 0.3 in terms of Growth Rate? Criterion not met

Determine whether this compound has Growth Rate no lower than 0.3: Br.Oc1cc2c(cc1O)C(c1ccccc1)CNCC2 (stereo not drawn) Criterion not met

Evaluate O=C(O)Cc1ccccc1Nc1c(Cl)cccc1Cl [DICLOFENAC] : Growth Rate at minimum 0.3? Criterion not met

Could you verify whether the entry Cc1cnc(CNCC2(F)CCN(C(=O)c3ccc(F)c(Cl)c3)CC2)nc1 shows Growth Rate of no less than 0.3? Criterion met

Could you tell me if the measured Growth Rate of C[C@H]1[C@H]2CC[C@H]3[C@@H]4CC=C5C[C@@H](N(C)C)CC[C@]5(C)[C@H]4CC[C@]23CN1C [CONESSINE] reaches 0.3 or more? Criterion met

# check: Growth Rate of Cl.O=C1CC[C@@]2(O)[C@H]3Cc4ccc(O)c5c4[C@@]2(CCN3CC2CC2)[C@H]1O5 [NALTREXONE HYDROCHLORIDE] is greater than or equal to 0.3 Criterion met

Is it the case that CCCCOCCOc1nc(-c2ccc(C(=O)O)c(F)c2)sc1C has Growth Rate reaching or exceeding 0.3? Criterion not met

Exam item: decide whether the reported Growth Rate for CC(=O)NCCc1c(Cc2ccccc2)[nH]c2ccccc12 [LUZINDOLE] is at least 0.3. Criterion met

Could you please find out whether CCCCC1=NC2(CCCC2)C(=O)N1Cc1ccc(-c2ccccc2-c2nnn[nH]2)cc1 [IRBESARTAN] has Growth Rate that meets 0.3 or exceeds it? Criterion met

Is it the case that C[C@]1(O)CC[C@H]2[C@@H]3CCC4=CC(=O)CCC4=C3C=C[C@@]21C [METRIBOLONE] has Growth Rate reaching or exceeding 0.3? Criterion not met

Given the entry CN[C@@H](C)C(=O)N[C@H]1CCCC[C@H]2CC[C@@H](C(=O)N[C@@H](c3ccccc3)c3cn(CCCCc4ccc(CCCCn5cc([C@@H](NC(=O)[C@@H]6CC[C@@H]7CCCC[C@H](NC(=O)[C@H](C)NC)C(=O)N76)c6ccccc6)nn5)cc4)nn3)N2C1=O , answer whether its Growth Rate meets or surpasses 0.3. Criterion not met

Given CC1(COc2ccc3c(c2)ncn3-c2ccc3cccc(N4CCC(N)CC4)c3n2)COC1 [CRENOLANIB] , state whether its Growth Rate is at least 0.3. Criterion not met

Quick check, Growth Rate >= 0.3? CN(C)CCCc1cc(C(=O)Nc2ccc(-c3ccncc3)cc2)ccc1O.Cl.Cl Criterion not met

Value source: ChEMBL document CHEMBL5058564
